test target: GLP-1 receptor (Homo sapiens, UniProt P43220)
Construct: expressed in transfected cells; host or cells: CHO-K1/GLP1/Gα15
Sequence (P43220 24-463, species assumed): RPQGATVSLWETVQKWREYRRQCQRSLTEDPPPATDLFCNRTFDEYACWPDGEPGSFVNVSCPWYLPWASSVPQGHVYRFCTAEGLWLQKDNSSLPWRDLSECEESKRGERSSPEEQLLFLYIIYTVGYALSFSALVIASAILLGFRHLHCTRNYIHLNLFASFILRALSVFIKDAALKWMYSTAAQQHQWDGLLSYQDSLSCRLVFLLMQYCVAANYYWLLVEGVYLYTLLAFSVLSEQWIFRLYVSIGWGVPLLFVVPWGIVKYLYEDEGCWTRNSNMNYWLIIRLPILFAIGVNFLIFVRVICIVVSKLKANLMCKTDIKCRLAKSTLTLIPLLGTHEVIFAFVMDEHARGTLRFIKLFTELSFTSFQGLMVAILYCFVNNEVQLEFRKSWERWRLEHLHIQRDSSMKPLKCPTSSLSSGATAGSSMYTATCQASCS
assay remarks: Cell-based GLP-1 receptor assay, intracellular calcium mobilization in CHO-K1/GLP1/Gα15 (FlexStation)
measurement context: Calcium-4
pEC50: −log10 of the molar value.

{"substance": "5 kDa-PEG-Cys(37)-GLP-1 (HAEGTFTSDVSSYLEGQAAKEFIAWLVKGRC)", "pEC50": 6.47}
